Experiment: Drug concentration in the plasma of the patients after the end of the treatment
Settings: human, in vivo; after 12 weeks of 1 to 30 mg dextromethorphan per day; value in brackets
property measured: concentration at 12 weeks

input: For COc1ccc2c(c1)[C@]13CCCC[C@@H]1[C@H](C2)N(C)CC3 [dextromethorphan] , what is its reported concentration at 12 weeks?
output: 50 to 200 nM

====

Assay: Drug concentration in the plasma of the patients after the end of the treatment
Details: human, in vivo; after 12 weeks of 1 to 30 mg dextromethorphan per day
property measured: concentration at 12 weeks

input: Look at this compound and give its reported concentration at 12 weeks. COc1ccc2c(c1)[C@]13CCCC[C@@H]1[C@H](C2)N(C)CC3
output: 10 to 50 ng/mL
